Numbers sourced from the supplement of paper PMC10065799.

assayed_system: EPHB2 (UniProt P29323)
Sequence (P29323 whole entry, looked up): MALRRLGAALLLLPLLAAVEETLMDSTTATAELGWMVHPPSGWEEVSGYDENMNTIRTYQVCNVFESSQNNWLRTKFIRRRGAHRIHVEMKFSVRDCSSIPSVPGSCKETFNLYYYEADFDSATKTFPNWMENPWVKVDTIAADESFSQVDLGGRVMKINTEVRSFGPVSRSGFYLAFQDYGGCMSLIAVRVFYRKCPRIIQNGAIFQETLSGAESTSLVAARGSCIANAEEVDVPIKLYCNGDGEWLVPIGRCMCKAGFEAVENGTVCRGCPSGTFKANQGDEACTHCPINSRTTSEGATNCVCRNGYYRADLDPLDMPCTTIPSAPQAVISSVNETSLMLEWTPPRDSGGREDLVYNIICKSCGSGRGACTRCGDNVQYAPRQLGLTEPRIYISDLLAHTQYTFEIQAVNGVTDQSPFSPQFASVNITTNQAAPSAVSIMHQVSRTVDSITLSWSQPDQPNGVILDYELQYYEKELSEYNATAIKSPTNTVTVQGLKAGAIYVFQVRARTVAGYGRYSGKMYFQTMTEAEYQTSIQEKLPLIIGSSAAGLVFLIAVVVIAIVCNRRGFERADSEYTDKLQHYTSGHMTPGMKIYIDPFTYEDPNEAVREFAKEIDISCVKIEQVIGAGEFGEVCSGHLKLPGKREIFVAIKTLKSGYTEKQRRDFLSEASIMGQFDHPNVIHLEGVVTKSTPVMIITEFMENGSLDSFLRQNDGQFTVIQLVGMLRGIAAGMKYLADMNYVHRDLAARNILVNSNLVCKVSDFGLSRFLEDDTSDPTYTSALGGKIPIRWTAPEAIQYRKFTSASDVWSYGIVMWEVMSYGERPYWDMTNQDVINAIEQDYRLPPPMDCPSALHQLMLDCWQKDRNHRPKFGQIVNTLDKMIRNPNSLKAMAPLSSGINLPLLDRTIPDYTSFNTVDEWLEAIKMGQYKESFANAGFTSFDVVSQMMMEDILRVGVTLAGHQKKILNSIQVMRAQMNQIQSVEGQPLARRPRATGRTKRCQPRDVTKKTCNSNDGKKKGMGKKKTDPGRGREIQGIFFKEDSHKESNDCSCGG
test_summary: phosphorylation enrichment, bacterial display (enrichment ratio); higher = better substrate or ligand; peptides without Tyr show the background;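 further: 11-residue human phosphosite peptides and single-mutation variants displayed on the E. coli surface, counted by deep sequencing, each peptide's frequency after selection divided by its frequency in the unselected input library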;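 further: frequency after pTyr selection over input frequency; kinase dosed for 20-30% of maximal phosphorylation in three min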
Records here are stratified by phosphorylation enrichment; strata: one = under 0.5, two = from 0.5 up to 0.6, three = 0.6 and over

// known answers, use as guide
GPGGDYAAMGA [ERBB3_Y1276] ... three
NSGFFYKTAEE [CCT6B_Y250] ... three
GAMGHYVLAER [HFE_Y342] ... one
RFLERYIYNPE [HLA-DPB1_Y57_R61P] ... three
CTTFHYNFMCN [TP53_Y234_I232F_YF] ... two

Field: class (phosphorylation enrichment) — entry: DTLASYLDKVR [KRT12_Y139_R135T] one

Which phosphorylation enrichment band matches TTGLIYIGSHD [AASDH_Y870] ? two

Please classify: SARFRYLMAEK [LDHB_Y173] one

Lab note: which band did GVASDYKCVDP [VPS13B_Y1991_I1994V] land in? three

Into which category would you place NIEPVYLNMLL [ATR_Y317] ? three

Form field 'band' for FADIAYSYRHG [PAH_Y166_N167S] one

Band for IYHLSYIHNCE [PDE6B_Y227_L228I] ? three

Kindly identify the class of ECKLLYSQKEG [PTPN11_Y263_R265Q] . three

Entry GTHCHYKAPIV [FZD9_Y569_T573I] belongs to which category? two

Quick check: band for GVVVPYEPPEV [TP53_Y220_S215G] two

Category lookup for the sequence GMTLSYLFREP [NDUFS8_Y74] two

Lab log: SSLMKYQQNVS [EGFEM1P_Y160_P157L] — assign phosphorylation enrichment category one

For the record RPQDGFRIVQH [PTPRT_Y1329_Y1329F] , report the class its phosphorylation enrichment corresponds to. one

Returns: class label. Input: GRQGIYTKNER [GPR143_Y231_E233K] one

Just checking, what class would you give SAGSSYSISSI [PAX5_Y179_G183S] here? one

Using the reported phosphorylation enrichment, which band applies to DDFNLYINVKL [MTHFD1_Y52_S49F] ? two

Band assignment needed for LSDVIYVILRK [PMP22_Y153_G150D] please. two

GET /class?item= QLHRKYCLSPR [HJURP_Y445_E444K] three

Which band does RPSRQYATRDV [SCAMP3_Y35_L38R] fall in? one

Which class does KSPDSYQKILL [ATM_Y1415] fall in? one

Which category does the recorded phosphorylation enrichment put GGDQPYSGAGD [TYRO3_Y828_R824G] in? one

---

assayed_system: FGFR1 (UniProt P11362)
Sequence (P11362 whole entry, looked up): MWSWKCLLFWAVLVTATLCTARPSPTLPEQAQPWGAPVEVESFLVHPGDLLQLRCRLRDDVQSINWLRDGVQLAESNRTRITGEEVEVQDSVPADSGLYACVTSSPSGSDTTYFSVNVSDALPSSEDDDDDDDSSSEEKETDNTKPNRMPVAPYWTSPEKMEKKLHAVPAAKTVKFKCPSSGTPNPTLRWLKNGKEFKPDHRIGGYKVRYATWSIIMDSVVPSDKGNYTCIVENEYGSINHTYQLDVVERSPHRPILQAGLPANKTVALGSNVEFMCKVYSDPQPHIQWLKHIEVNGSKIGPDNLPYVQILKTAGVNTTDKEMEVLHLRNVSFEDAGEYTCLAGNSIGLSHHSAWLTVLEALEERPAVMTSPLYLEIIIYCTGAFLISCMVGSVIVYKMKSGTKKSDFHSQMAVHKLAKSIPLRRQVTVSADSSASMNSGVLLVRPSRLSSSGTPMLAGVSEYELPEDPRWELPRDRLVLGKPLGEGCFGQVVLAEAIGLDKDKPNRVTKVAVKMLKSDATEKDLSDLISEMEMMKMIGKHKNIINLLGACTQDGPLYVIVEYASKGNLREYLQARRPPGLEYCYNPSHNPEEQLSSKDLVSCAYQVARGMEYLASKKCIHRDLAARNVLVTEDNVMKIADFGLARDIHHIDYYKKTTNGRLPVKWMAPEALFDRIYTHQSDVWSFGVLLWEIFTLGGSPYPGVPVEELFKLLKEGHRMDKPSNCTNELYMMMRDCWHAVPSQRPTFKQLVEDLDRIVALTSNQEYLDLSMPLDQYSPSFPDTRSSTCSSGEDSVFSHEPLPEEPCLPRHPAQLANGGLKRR
test_summary: phosphorylation enrichment, bacterial display (enrichment ratio); higher = better substrate or ligand; peptides without Tyr show the background
Short version: phosphorylation enrichment at least 0.5 is 1 (yes), less is 0 (no).

EASGIYVKSVI [PATJ_Y396_I400V] ... 0 (no)

Hi team, for EPYKVYRIVPE [IRF8_Y110] , is the recorded phosphorylation enrichment at or above 0.5? 1 (yes)

Could you tell me if the measured phosphorylation enrichment of SRGSSYSSIPK [FLNC_Y2625] reaches 0.5 or more? 0 (no)

---

assayed_system: EPHB2 (UniProt P29323)
test_summary: phosphorylation enrichment, bacterial display (enrichment ratio); higher = better substrate or ligand; peptides without Tyr show the background
Would you mind telling me the reported phosphorylation enrichment of each entry?
Answers are plain numbers.

See these solved cases before continuing.
QGCGIYKDYYR [PLA2G2D_Y82_S80G] ... 0.904
VFPIDYFFPPQ [AR_Y552_L548F_YF] ... 1.53

I need phosphorylation enrichment for every entry listed below, if you could help.
1. QNTGVYYDLYG [PTPN11_Y62_D61V]
2. TTKGSYSLFVR [HCK_Y180_S183Y_YF]
3. TGEKPYECVQC [ZNF24_Y335]
4. ADFFDYGRGLS [KHDRBS3_Y304_H306R_YF]
5. LLILEYAKFGS [RET_Y806_V804L_YF]
6. FQRITYHNWRH [PDE6B_Y556_R552Q_YF]
7. QPGDICHQTWA [GBA_Y244_Y244C]
8. DGYTDYAEFAK [MCFD2_Y138_I136T]

1. 5.61
2. 0.846
3. 0.507
4. 0.522
5. 0.991
6. 0.511
7. 0.45
8. 0.706
